Source listed as the supplement of paper PMC12855868.

B1: library; numbered along this chain (parent)
chain: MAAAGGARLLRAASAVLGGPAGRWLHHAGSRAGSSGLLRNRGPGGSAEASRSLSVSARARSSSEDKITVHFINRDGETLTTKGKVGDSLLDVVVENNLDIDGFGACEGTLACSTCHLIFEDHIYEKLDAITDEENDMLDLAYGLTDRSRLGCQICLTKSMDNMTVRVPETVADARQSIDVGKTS

# Variants of: B1
# assay_procedure: scaled log2 fold change in cell abundance, elesclomol vs control (0 = silent mean, 1 = nonsense mean) (scaled log2 ratio); higher = higher viability under elesclomol (loss of FDX1 cuproptosis function);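 further: variant abundance is its share of total variant reads in each endpoint sample, from next-generation sequencing of the integrated ORF PCR-amplified out of genomic DNA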
# reported_conditions: with ABC1 FDX1 KO; elesclomol 5 nM; glucose 10 mM; 14 days
Reported scaled log2 fold change values for the following variants.
Please reply with the value in numeric form only.

> print(dat)
   variant.code  measured.number
1          A57R            0.224
2         I118Y           0.0377

Item `N40V` has what recorded scaled log2 fold change?
0.408

Would you mind doing `G102C` as well?
0.0125

Could you do the same for `G104P` , please?
1.02

Repeat with `D87W`
-0.221

Try this variant next: `S159A`
0.168

Note, next up: `D91Q`
-1.31
